Target: T1, HLA-B08:01 (human)
T1 construct: Stability assay: E. coli-expressed biotinylated heavy chain with 125I-labelled b2m; MS: BAP-tagged HLA in HEK293T cells; Treated as one molecule
Assay: pMHC-I dissociation, 125I-b2m, 37C; experiment 1
outcome measure: half-life (min)

binder	units of measure	half-life
LHFCRSSIM	min	0

A: ESKIMFATL
B: IMKPKRDGYM
Query :: Between item A and item B , which reported half-life is smaller? Lab note: record the label of whichever item you select.
Result :: B

I: FLKAESKIM
II: MFATLQRSSL
Query :: Task for the reader: decide whether I or II has the larger half-life. Lab note: record the label of whichever item you select.
Result :: I
